# credit: paper PMC12785453

# assay.text: Oral fluid concentrations of clephedrone (GC-MS/MS)
# Type: in vivo, humans
# experimental.setup: both sexes, human, 100 or 150 mg oral, n=8
metric.name: Tmax (h)
State the answer as a number, implicitly in h.

Ask: Tmax for CNC(C)C(=O)c1ccc(Cl)cc1 (stereo not shown) [Clephedrone, 4-chloromethcathinone] ?
Reply: 3

###

# assay.text: Oral fluid concentrations of methylone (LC-MS/MS)
# Format: in vivo, humans
# experimental.setup: human, oral fluid; 150 or 200 mg oral, n=12; read-out: Oral fluid AUC0–6 h
metric.name: AUC(0-t) (µg·h/mL)
State the answer as a number, implicitly in µg·h/mL.

Ask: AUC(0-t) for CNC(C)C(=O)c1ccc2c(c1)OCO2 (stereo not shown) ?
Reply: 44.7
